Test system: PCSK9 gene
test-details: PCSK9 gRNA/SpCas9 editing in primary human hepatocytes (Tables 2, 4)
Assay type: cell-based
measurement-setup: 2500 ng/RNA/mL; SpCas9 mRNA MS002 1:1 by weight
m = 2'-O-methyl; r = 2'-OH (RNA)
readout-name: Human Primary Hepatocyte Editing % 2500 (%)
Provide only the numeric value, understood in %.

* GA199: PCSK9 gRNA; protospacer GAAGCGGGTCCCGTCCTCCT (SEQ ID NO: 193) (nucleic acid, sugars from the 5' end m3 r94 m3, linkages s3 o93 s3 (s phosphorothioate, o phosphodiester), T or U not given here) guide: GAAGCGGGUCCCGUCCUCCUGUUUUAGAGCUAGAAAUAGCAAGUUAAAAUAAGGCUAGUCCGUUAUCAACUUGAAAAAGUGGCACCGAGUCGGUGCUUUU | 29.95

Okay, now this molecule:
# return recorded Human Primary Hepatocyte Editing % 2500 for input GA207: PCSK9 gRNA; protospacer GGAAATCGAGGGCAGGGTCA (SEQ ID NO: 201) (nucleic acid, sugars from the 5' end m3 r94 m3, linkages s3 o93 s3 (s phosphorothioate, o phosphodiester), T or U not given here) guide: GGAAAUCGAGGGCAGGGUCAGUUUUAGAGCUAGAAAUAGCAAGUUAAAAUAAGGCUAGUCCGUUAUCAACUUGAAAAAGUGGCACCGAGUCGGUGCUUUU
20.79
